System: MCF-7 cells
Experiment: Soft agar colony formation by MCF-7 cells with synthetic peptide added
Format: cell-based, human
Details: after ten days, peptide replenished with every addition of medium
assay_endpoint: size of the clones formed in soft agar

- substance: "SSEEQETGVEKASSNS (Control peptide for OPNcPEP) [SEQ ID NO: 33, scrambled hOPN-c peptide, non-specific control, reference compound]"
  value: "no effect"
- substance: "NAVSSEETNDFKQE (Control peptide derived from Exon 5) [SEQ ID NO: 34, hOPN Exon-5 peptide, non-specific control, reference compound]"
  value: "no effect"
